system: TRPC4 (transient receptor potential cation channel C4 beta), mouse; test: potentiation of DAMGO EC20 TRPC4 response – cell-based, second round, Fluo-4, HEK293 TRPC4beta/mu-opioid, 1 µM, confirmation (AID 2554); conditions: DAMGO EC20, Fluo-4 calcium flux, at 1 µM
Active and inactive are the calls of the source.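 How the source made its calls: active means primary screen hit whose fluorescence ratio, in both repeats, exceeds the weak agonist control mean by 3 SD; inactive means the rest.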
Classes used: True for active, False for inactive

{"columns": ["Compound", "Measured on", "Group"],
 "data": [
  ["O=C(Nc1ccccc1Oc1cccnc1)C1CCCN(Cc2cccc(Cl)c2)C1 (configuration not stated)", "TRPC4 (transient receptor potential cation channel C4 beta), mouse", "False"],
  ["COc1cc(CN2CCC(CO)(CCOc3ccccc3)CC2)cc(OC)c1", "TRPC4 (transient receptor potential cation channel C4 beta), mouse", "False"],
  ["COc1ccc(C(=O)c2no[n+]([O-])c2C(=O)c2ccc(OC)cc2)cc1", "TRPC4 (transient receptor potential cation channel C4 beta), mouse", "True"],
  ["C/C=C(/C)C(=O)O[C@@H]1c2cc(OC)c(OC)c(OC)c2-c2c(cc3c(c2OC)OCO3)C[C@H](C)[C@]1(C)O", "TRPC4 (transient receptor potential cation channel C4 beta), mouse", "False"],
  ["Cc1ccc(OCC(=O)N(C)CCc2ccccn2)cc1", "TRPC4 (transient receptor potential cation channel C4 beta), mouse", "False"],
  ["COc1ccc(OC)c(Nc2cc(C)nc3ccc(C)cc23)c1", "TRPC4 (transient receptor potential cation channel C4 beta), mouse", "False"],
  ["COc1cc(C2c3c(-c4ccccc4)n[nH]c3C(=O)N2c2ccccc2)ccc1O (configuration not stated)", "TRPC4 (transient receptor potential cation channel C4 beta), mouse", "False"],
  ["COc1ccccc1CC(=O)N1CCN(S(=O)(=O)c2ccccc2)CC1", "TRPC4 (transient receptor potential cation channel C4 beta), mouse", "False"],
  ["C=C(C)COc1ccc(-c2[nH]ncc2Oc2ccc(OC)cc2)c(O)c1", "TRPC4 (transient receptor potential cation channel C4 beta), mouse", "False"],
  ["CCCCN(Cc1ccccc1)C(=O)C1CCN(Cc2sccc2C)CC1", "TRPC4 (transient receptor potential cation channel C4 beta), mouse", "False"],
  ["COc1cccc(Oc2cncnc2-c2ccc(OC)cc2O)c1", "TRPC4 (transient receptor potential cation channel C4 beta), mouse", "False"],
  ["COc1cc(NC(=O)C(C)Oc2ccccc2)cc(OC)c1 (configuration not stated)", "TRPC4 (transient receptor potential cation channel C4 beta), mouse", "False"],
  ["O=C(NN/C(=N/S(=O)(=O)c1ccc(Cl)cc1)c1ccccc1)c1cccc(Cl)c1", "TRPC4 (transient receptor potential cation channel C4 beta), mouse", "False"],
  ["O=C(O)c1ccc(NC(=O)c2cn(-c3ccccc3)nc2-c2ccc(Br)cc2)cc1", "TRPC4 (transient receptor potential cation channel C4 beta), mouse", "False"],
  ["COC(=O)c1ccc(N2CCN(C)CC2)c(NC(=O)c2cccs2)c1", "TRPC4 (transient receptor potential cation channel C4 beta), mouse", "False"],
  ["CC(C)(C)NC(=S)N/N=C\\c1ccc(-c2ccc([N+](=O)[O-])cc2)o1", "TRPC4 (transient receptor potential cation channel C4 beta), mouse", "False"],
  ["c1ccc(Nc2ncnc3sc4c(c23)CCC4)cc1", "TRPC4 (transient receptor potential cation channel C4 beta), mouse", "False"],
  ["O=[N+]([O-])c1cc(C(F)(F)F)ccc1NC1CCN(Cc2ccccc2)C1 (configuration not stated)", "TRPC4 (transient receptor potential cation channel C4 beta), mouse", "False"],
  ["COc1ccc(SC[C@H](Cc2ccccc2)N2CCN(C)CCC2=O)cc1", "TRPC4 (transient receptor potential cation channel C4 beta), mouse", "False"],
  ["CCCn1c(N2CCN(S(=O)(=O)Cc3ccccc3)CC2)nc2ccccc21", "TRPC4 (transient receptor potential cation channel C4 beta), mouse", "False"],
  ["COc1ccccc1N1CCN(Cc2cc(=O)c(OCC(=O)NC3CCCC3)co2)CC1", "TRPC4 (transient receptor potential cation channel C4 beta), mouse", "False"],
  ["COc1cccc(CN2CCNC(=O)C2CC(=O)N(C)CCc2ccccn2)c1OC (configuration not stated)", "TRPC4 (transient receptor potential cation channel C4 beta), mouse", "False"]
]}
